MEASUREMENT TYPE: melting point

// below: answered compounds
O=c1[nH]c2nc(SCc3cccc(F)c3F)nc(NCCO)c2s1 [Example 9]: 217 to 219 °C
CS(=O)(=O)NCCNc1nc(SCc2cccc(F)c2F)nc2[nH]c(=O)sc12 [Example 10]: 225 to 226 °C
COCC(CO)Nc1nc(SCc2cccc(F)c2F)nc2[nH]c(=O)sc12.[Na] (racemic): > 250 °C
NCCNc1nc(SCc2cccc(F)c2F)nc2[nH]c(=O)sc12 [Example 8]: 215 to 216 °C
CC(COCCO)Nc1nc(SCc2cccc(F)c2F)nc2[nH]c(=O)sc12 (racemic) [Example 11]: 221 to 222 °C

Alright, here's another compound for you.
Measured melting point, Cc1nc(CSc2nc(NC(C)(C)CO)c3sc(=O)[nH]c3n2)cs1 [Example 22] : 231 to 232 °C
